Molecular target: IRAK4 (Homo sapiens)
Assay: Degradation of IRAK4 in THP1 cells, Western blot
Assay type: cell-based
Set-up: Degradation of IRAK4 in THP1 by compound; host or cells: THP-1
Details: maximum degradation rate, THP-1 cells, 24 hours of incubation; read-out: Dmax
result type: Dmax

Cn1c(=O)n(C2CCC(=O)NC2=O)c2cccc(N3CCC(C(=O)N4CCN(c5ccc(-n6cc(NC(=O)c7cccc(C(F)(F)F)n7)c(C(N)=O)n6)cc5)CC4)CC3)c21 (centres unmarked) | > 60%
CC(C)(O)c1nn(-c2ccc(N3CCN(CC4CCN(c5ccc(NC6CCC(=O)NC6=O)cc5F)CC4)CC3)cc2)cc1NC(=O)c1cncc(C#N)c1 (centres unmarked) | < 40%
NC(=O)c1nn(-c2ccc(N3CCN(CC4CCN(c5ccc6c(c5)C(=O)N(C5CCC(=O)NC5=O)C6=O)C4)CC3)cc2)cc1NC(=O)c1cccc(C(F)(F)F)n1 (centres unmarked) | > 60%
NC(=O)c1nn(-c2ccc(N3CCN(C4CCN(c5ccc(OC6CCC(=O)NC6=O)cc5F)CC4)CC3)cc2)cc1NC(=O)c1cccc(C(F)(F)F)n1 (centres unmarked) | > 60%

# evaluate next
Entry Cn1c(=O)n(C2CCC(=O)NC2=O)c2cccc(NCCN3CC4(C3)CN(C(=O)c3ccc(-n5cc(NC(=O)c6cccc(-c7ccn[nH]7)n6)c(S(N)(=O)=O)n5)cc3)C4)c21 (centres unmarked) , Dmax reported as > 60%

====

# key: entry, value: F
Test: Pharmacokinetic detection in rats after intravenous injection and oral administration
Type: in vivo, Sprague-Dawley (SD) rats
Settings: rat, oral 10 mg/kg, intravenous 2 mg/kg
Answer with a number only, understood to be in %.

Known results for compounds:
NC(=O)c1nn(-c2ccc(N3CCN(CC4CCN(c5ccc6c(c5)CN(C5CCC(=O)NC5=O)C6=O)CC4)CC3)cc2)cc1NC(=O)c1cccc(C(F)(F)F)n1 (centres unmarked) | 16
NC(=O)c1nn(-c2ccc(N3CCN(CCN4CCN(c5ccc6c(c5)C(=O)N(C5CCC(=O)NC5=O)C6=O)CC4)CC3)cc2)cc1NC(=O)c1cccc(C(F)(F)F)n1 (centres unmarked) | 18
Cn1c(=O)n(C2CCC(=O)NC2=O)c2cccc(C#CCOC3CCN(CC4CCC(n5cc(NC(=O)c6cnn7ccc(N8CC9CC8CO9)nc67)c(C(F)F)n5)CC4)CC3)c21 (centres unmarked) [Control compound 1, reference compound] | 8
NC(=O)c1nn(-c2ccc(N3CCN(CC4CCN(c5ccc(NC6CCC(=O)NC6=O)cc5F)CC4)CC3)cc2)cc1NC(=O)c1cccc(C(F)(F)F)n1 (centres unmarked) | 52

# evaluate next
Entry Cn1c(=O)n(C2CCC(=O)NC2=O)c2cccc(N3CCC(CN4CCN(c5ccc(-n6cc(NC(=O)c7cccc(C(F)(F)F)n7)c(C(N)=O)n6)cc5)CC4)CC3)c21 (centres unmarked) , F reported as 30

====

# key: entry, value: DC50
Biological target: IRAK4 (Homo sapiens, UniProt Q9NWZ3)
Sequence (Q9NWZ3 1-460): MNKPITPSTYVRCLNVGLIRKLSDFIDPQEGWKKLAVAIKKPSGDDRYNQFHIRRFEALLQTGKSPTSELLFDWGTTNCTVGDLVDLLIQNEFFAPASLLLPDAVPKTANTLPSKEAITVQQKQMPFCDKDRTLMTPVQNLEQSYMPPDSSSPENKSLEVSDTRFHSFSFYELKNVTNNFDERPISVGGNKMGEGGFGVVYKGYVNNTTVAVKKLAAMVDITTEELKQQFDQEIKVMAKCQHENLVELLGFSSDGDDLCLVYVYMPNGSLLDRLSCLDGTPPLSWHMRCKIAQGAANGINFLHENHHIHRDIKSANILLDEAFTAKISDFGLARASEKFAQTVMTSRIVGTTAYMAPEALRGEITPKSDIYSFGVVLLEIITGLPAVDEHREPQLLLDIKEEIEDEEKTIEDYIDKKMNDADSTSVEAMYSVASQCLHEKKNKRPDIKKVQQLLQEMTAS
Test: Degradation of IRAK4 in THP1 cells, Western blot
Assay type: cell-based
Design: Degradation of IRAK4 in THP1 by compound; host or cells: THP-1
Conditions: THP-1 cells, 24 hours of incubation, IRAK4 protein by Western blot; read-out: DC50

Known results for compounds:
Cn1c(=O)n(C2CCC(=O)NC2=O)c2cccc(CN3CCC(N4CCN(c5ccc(-n6cc(NC(=O)c7cccc(C(F)(F)F)n7)c(C(N)=O)n6)cc5)CC4)CC3)c21 (stereo not drawn) | < 0.1 µM
Cn1c(-c2ccc(N3CCC(CN4CCN(c5ccc(-n6cc(NC(=O)c7cccc(C(F)(F)F)n7)c(C(N)=O)n6)cc5)CC4)C3)cc2)nn(C2CCC(=O)NC2=O)c1=O (stereo not drawn) | < 0.1 µM

# evaluate next
For the compound NC(=O)c1nn(-c2ccc(N3CCN(C4CCN(c5ccc(NC6CCC(=O)NC6=O)cc5F)CC4)CC3)cc2)cc1NC(=O)c1cccc(C(F)(F)F)n1 (stereo not drawn) , the measured DC50 on IRAK4 (Homo sapiens, UniProt Q9NWZ3) was < 0.1 µM

All values here come from patent EP4763839A1.
